Assay comment: Biodistribution of 99mTc complexes in mice
Assay type: in vivo, Balb/c mice
Protocol conditions: 1 min
Measured attribute: biodistribution urine (% Injected dose)

// below: answered compounds
CC(C)(C)c1ccc(O)c(NC(=O)CN(CCN(CC(=O)O)CC(=O)Nc2cc(C(C)(C)C)ccc2O)CC(=O)O)c1 [Compound 4] = 0
Nc1ccc(O)c(NC(=O)CN(CCN(CC(=O)O)CC(=O)Nc2cc(N)ccc2O)CC(=O)O)c1 [Compound 5] = 0
Cc1cc(C)c(O)c(NC(=O)CN(CCN(CC(=O)O)CC(=O)Nc2cc(C)cc(C)c2O)CC(=O)O)c1 [Compound 6] = 0.07

P. O=C(O)CN(CCN(CC(=O)O)CC(=O)Nc1ccc(Cl)cc1O)CC(=O)Nc1ccc(Cl)cc1O [Compound 2]
Q. O=C(O)CN(CCN(CC(=O)O)CC(=O)Nc1ccccc1O)CC(=O)Nc1ccccc1O [Compound 1]
IN: Short answer wanted: higher biodistribution urine, P or Q ? Use the label to indicate which entry you chose.
OUT: P

Numbers sourced from patent US5807535A.
